# Tested on: 233499-124-R-J3-PDC complex spheroid viability
# Method: Anticancer human tumor 233499-124-R-J3-PDC patient-derived colon adenocarcinoma cell line growth inhibition [CLK]
# Experimental conditions: second compound 1 µM; first compound 0.0316 µM; active compounds read low
So basically, the class depends on measured viability, T/C, and the ranges are L: < 4%; M: ≥ 4% and < 70%; H: ≥ 70%

Compound	Study system	Assigned label
CC1COCCN1c1cc(C2(S(C)(=N)=O)CC2)nc(-c2ccnc3[nH]ccc23)n1 (stereo not drawn) + CNC(=O)c1ccc(Nc2nc(OC3CCCC3)c3c(-c4ccc5nc(C)oc5c4)c[nH]c3n2)c(OC)c1	233499-124-R-J3-PDC complex spheroid viability	H
CC1(C)CCC(CN2CCN(c3ccc(C(=O)NS(=O)(=O)c4ccc(NCC5CCOCC5)c([N+](=O)[O-])c4)c(Oc4cnc5[nH]ccc5c4)c3)CC2)=C(c2ccc(Cl)cc2)C1 + CNC(=O)c1ccc(Nc2nc(OC3CCCC3)c3c(-c4ccc5nc(C)oc5c4)c[nH]c3n2)c(OC)c1	233499-124-R-J3-PDC complex spheroid viability	H
COc1ccc([C@@H](O)c2cc(-c3ncnc4cc(N5CCOCC5)ccc34)c(F)cc2Cl)nn1 + CN1CCN(c2cc(C(=O)Nc3cc4cc(-c5cnn(C)c5)ccc4cn3)ccn2)CC1	233499-124-R-J3-PDC complex spheroid viability	L

q: Returns: class label. Input: O=c1[nH]cc(F)c(=O)[nH]1 + CN1CCN(c2cc(C(=O)Nc3cc4cc(-c5cnn(C)c5)ccc4cn3)ccn2)CC1
a: L

q: Returns: class label. Input: CC(CO)NC(=O)c1cc(-c2ccc(Cl)cc2)nn(-c2cnn(C)c2)c1=O (stereo not drawn) + CNC(=O)c1ccc(Nc2nc(OC3CCCC3)c3c(-c4ccc5nc(C)oc5c4)c[nH]c3n2)c(OC)c1
a: H

q: Returns: class label. Input: Cn1ncnc1[C@H]1c2n[nH]c(=O)c3cc(F)cc(c23)N[C@@H]1c1ccc(F)cc1 + CNC(=O)c1ccc(Nc2nc(OC3CCCC3)c3c(-c4ccc5nc(C)oc5c4)c[nH]c3n2)c(OC)c1
a: M

q: Returns: class label. Input: C=CC(=O)N1CCN(c2nc(=O)n(-c3c(C)ccnc3C(C)C)c3nc(-c4c(O)cccc4F)c(F)cc23)C(C)C1 (stereo not drawn) + CN1CCN(c2cc(C(=O)Nc3cc4cc(-c5cnn(C)c5)ccc4cn3)ccn2)CC1
a: L

###

# System: 233499-124-R-J3-PDC complex spheroid viability
# Method: Anticancer human tumor 233499-124-R-J3-PDC cell line growth inhibition [CLK]; active = viability on the fitted dose curve at most 10% of control; inactive = the rest;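 further: spheroids exposed to the drug combinations for seven days; percent viability relative to DMSO vehicle control wells taken as 100%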
# Experimental conditions: second compound 1 µM; first compound 10 µM
Return exactly one item of 1 (active), -1 (inactive)

Molecule	Assigned label
CC1COCCN1c1cc(C2(S(C)(=N)=O)CC2)nc(-c2ccnc3[nH]ccc23)n1 (stereo not given) + CN1CCN(c2cc(C(=O)Nc3cc4cc(-c5cnn(C)c5)ccc4cn3)ccn2)CC1	1

q: I would be grateful if you could indicate the recorded call for COC1C=CCC(C)C(C)S(=O)(=O)NC(=O)c2ccc3c(c2)N(CC2CCC21)CC1(CCCc2cc(Cl)ccc21)CO3 (stereo not given) + CN1CCN(c2cc(C(=O)Nc3cc4cc(-c5cnn(C)c5)ccc4cn3)ccn2)CC1 .
a: 1

q: I would be grateful if you could indicate the recorded call for C=C(F)C(=O)N1CCN(c2nc(OCC3CCCN3C)nc3c2CCN(c2cccc4cccc(Cl)c24)C3)CC1CC#N (stereo not given) + CNC(=O)c1ccc(Nc2nc(OC3CCCC3)c3c(-c4ccc5nc(C)oc5c4)c[nH]c3n2)c(OC)c1 .
a: -1

q: I would be grateful if you could indicate the recorded call for O=C(c1cc(Cc2n[nH]c(=O)c3ccccc23)ccc1F)N1CCN(C(=O)C2CC2)CC1 + CNC(=O)c1ccc(Nc2nc(OC3CCCC3)c3c(-c4ccc5nc(C)oc5c4)c[nH]c3n2)c(OC)c1 .
a: -1

q: I would be grateful if you could indicate the recorded call for Nc1ccccc1NC(=O)c1ccc(CNC(=O)OCc2cccnc2)cc1 + CN1CCN(c2cc(C(=O)Nc3cc4cc(-c5cnn(C)c5)ccc4cn3)ccn2)CC1 .
a: 1
